test: HeLa cell cytotoxicity, dose response, cytotoxicity control for MgcRacGAP inhibitor project (AID 624300); conditions: CellTiter-Glo luminescence, 24 h; series mostly up to 100 µM
Out of some 2,400 compounds screened, about 360 (15%) were called active. Only a sample is shown. Potency and affinity values are given separately.
Result Type: outcome

// known answers, use as guide
Compound	outcome
O=c1/c(=C/c2ccc(O)cc2)sc2n1CCCN=2	inactive
CC1(C)CC(=O)C(C(C2=C(O)CC(C)(C)CC2=O)c2cccs2)C(=O)C1 (stereo unspecified)	inactive
Nc1cc(SCc2ccc([N+](=O)[O-])cc2)ncn1	inactive
CCc1nnc(N/N=C/c2cc(Br)c(O)cc2O)n1N	inactive
C/C(CC(=O)Nc1ccc(N(C)C)cc1)=N\NC(=O)c1ccc([N+](=O)[O-])cc1Cl	inactive

// switching to the query compound
Input: Any idea what its outcome is? The compound is "FC(F)(F)c1cccc(N2CCC(N=CN3CCCCCC3)=N2)c1"
Output: inactive

---

assay: HeLa cell cytotoxicity, dose response, cytotoxicity control for MgcRacGAP inhibitor project (AID 624300); settings: CellTiter-Glo luminescence, 24 h; series mostly up to 100 µM
In all, about 2,400 compounds went through this assay and about 360 (15%) were called active. Only a sample is shown. Entries with a potency or affinity are not part of this list.
Result Type: outcome

Compound	outcome
O=[N+]([O-])c1ccc(C2CC(c3ccccc3)=Nc3ccccc3S2)cc1 (stereo not drawn)	inactive
CC1(C)OC(=O)C(=Cc2ccc(-c3ccc(S(N)(=O)=O)cc3)o2)C(=O)O1	inactive
COc1cccc(CN2CCN(Cc3cc(OC)c(OC)c(OC)c3)CC2)c1OC	inactive
CCN(CC)c1ccc(NC(=O)C2=CC=CN3CCS(=O)(=O)N=C23)cc1	inactive
COc1cc(/C=N/NC(=O)CC2C(=O)NN=C2C)ccc1O (stereo not drawn)	inactive

Input: Any idea what its outcome is? The compound is "CCn1cnc2cc(NCc3ccc(OC)cc3)ccc21"
Output: inactive

Input: Any idea what its outcome is? The compound is "COc1ccc(/C=N/Nc2nc(N3CCCC3)nc(N3CCCC3)n2)cc1O"
Output: inactive

Input: Any idea what its outcome is? The compound is "Nc1nc2cc(S(=O)(=O)NC3=NCCCCC3)ccc2s1"
Output: inactive

---

experiment: HeLa cell cytotoxicity, dose response, cytotoxicity control for MgcRacGAP inhibitor project (AID 624300); details: CellTiter-Glo luminescence, 24 h; series mostly up to 100 µM
Among all 2,400 compounds or so, about 360 (15%) were called active. Not all results are given here. Measured potencies and affinities stand elsewhere.
Result Type: outcome

Compound	outcome
CN(C)c1ccc(Nc2ccc([N+](=O)[O-])cn2)cc1	inactive
CC(CCN1CCN(CCO)CC1)c1ccccc1 (stereo not drawn)	inactive
COc1ccc(NC2CCCN(C(=O)c3csc(C)n3)C2)cc1 (stereo not drawn)	inactive
OCCN1CCN(Cc2ccc3ccccc3c2)CC1	inactive
O=[N+]([O-])c1ccc(N2CCN(CCOCCO)CC2)c([N+](=O)[O-])c1	inactive

Input: Any idea what its outcome is? The compound is CC(CN1CCN(Cc2ccccc2)CC1)c1ccccc1 (stereo not drawn)
Output: inactive

Input: Any idea what its outcome is? The compound is "CCOc1cc(-c2nc3ccccc3s2)ccc1O"
Output: inactive

Input: Any idea what its outcome is? The compound is "Cc1ccc(SCCN2CCN(Cc3ccccc3)CC2)cc1"
Output: inactive

Hey, just so you know, these numbers are from PubChem BioAssay AID624300.
